target: α4β1 integrin (Jurkat T-cell adhesion to IL-1 stimulated endothelial cell monolayers) (Homo sapiens, UniProt P05556+P13612); construct: a T-cell line, Jurkat, known to express the α4β1 integrin; experiment: Jurkat-Endothelial Cell Adhesion Assay (Jurkat EC); details: Jurkat cells on IL-1 stimulated HUVEC monolayers
Sequence (P13612 34-1032): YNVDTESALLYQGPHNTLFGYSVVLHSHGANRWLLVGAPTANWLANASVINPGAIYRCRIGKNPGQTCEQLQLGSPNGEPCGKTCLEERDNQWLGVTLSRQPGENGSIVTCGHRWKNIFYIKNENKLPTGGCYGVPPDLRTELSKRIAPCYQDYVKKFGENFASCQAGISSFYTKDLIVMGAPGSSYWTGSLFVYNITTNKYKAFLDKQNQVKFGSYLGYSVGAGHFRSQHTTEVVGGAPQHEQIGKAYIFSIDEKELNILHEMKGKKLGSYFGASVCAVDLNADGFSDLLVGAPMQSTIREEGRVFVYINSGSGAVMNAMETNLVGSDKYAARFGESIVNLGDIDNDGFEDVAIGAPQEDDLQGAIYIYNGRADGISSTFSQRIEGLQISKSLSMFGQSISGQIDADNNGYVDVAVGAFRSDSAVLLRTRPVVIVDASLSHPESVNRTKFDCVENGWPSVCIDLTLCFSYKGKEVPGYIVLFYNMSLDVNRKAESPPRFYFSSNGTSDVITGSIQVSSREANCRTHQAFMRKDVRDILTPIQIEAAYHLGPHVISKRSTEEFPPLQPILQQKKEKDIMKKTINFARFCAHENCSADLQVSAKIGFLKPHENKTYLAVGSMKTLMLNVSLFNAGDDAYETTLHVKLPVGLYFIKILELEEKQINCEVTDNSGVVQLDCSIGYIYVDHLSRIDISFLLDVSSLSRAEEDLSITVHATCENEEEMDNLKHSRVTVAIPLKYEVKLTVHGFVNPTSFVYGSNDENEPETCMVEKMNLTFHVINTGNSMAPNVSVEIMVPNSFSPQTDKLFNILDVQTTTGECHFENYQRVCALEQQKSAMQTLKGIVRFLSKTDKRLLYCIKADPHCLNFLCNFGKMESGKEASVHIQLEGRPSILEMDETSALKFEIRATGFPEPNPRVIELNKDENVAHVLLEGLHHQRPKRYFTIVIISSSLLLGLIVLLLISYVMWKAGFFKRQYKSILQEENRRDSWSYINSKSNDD
Sequence (P05556 21-798): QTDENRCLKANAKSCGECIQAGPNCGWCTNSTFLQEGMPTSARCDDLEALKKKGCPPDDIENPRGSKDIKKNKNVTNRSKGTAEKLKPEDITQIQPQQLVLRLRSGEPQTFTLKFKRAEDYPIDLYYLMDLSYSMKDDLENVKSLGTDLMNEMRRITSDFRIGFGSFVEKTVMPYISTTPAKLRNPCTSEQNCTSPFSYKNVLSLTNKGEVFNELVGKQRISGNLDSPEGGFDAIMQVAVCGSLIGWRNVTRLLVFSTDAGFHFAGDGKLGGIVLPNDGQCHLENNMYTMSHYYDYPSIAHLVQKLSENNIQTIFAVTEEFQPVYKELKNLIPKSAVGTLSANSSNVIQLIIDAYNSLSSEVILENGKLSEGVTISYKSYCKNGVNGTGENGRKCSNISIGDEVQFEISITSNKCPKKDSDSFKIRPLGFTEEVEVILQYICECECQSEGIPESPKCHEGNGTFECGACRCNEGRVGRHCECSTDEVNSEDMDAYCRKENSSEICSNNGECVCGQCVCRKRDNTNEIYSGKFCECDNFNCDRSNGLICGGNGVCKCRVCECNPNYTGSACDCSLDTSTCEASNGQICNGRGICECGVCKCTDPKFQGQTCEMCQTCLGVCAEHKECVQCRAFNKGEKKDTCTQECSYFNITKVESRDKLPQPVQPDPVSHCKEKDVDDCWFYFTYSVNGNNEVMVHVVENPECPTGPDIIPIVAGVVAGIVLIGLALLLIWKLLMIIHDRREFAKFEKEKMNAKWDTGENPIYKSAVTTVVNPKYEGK
pIC50: −log10 of the molar value.

compound: CC1(C)[C@@H](C(=O)N[C@@H](Cc2ccc(NC(=O)c3c(Cl)cccc3Cl)cc2)C(=O)O)CC[C@@]1(C)C(=O)NCC(=O)O [Example 181]
pIC50: ≥ 6.10
//
compound: COC(=O)[C@H](Cc1ccc(NC(=O)c2cc(C(F)(F)F)ccc2Cl)cc1)NC(=O)[C@H]1CC[C@@](C)(C(=O)O)C1(C)C [Example 231]
pIC50: ≥ 6.10
//
compound: CC1(C)[C@@H](C(=O)N[C@@H](Cc2ccc(OCc3ccc4ccccc4c3)cc2)C(=O)O)CC[C@@]1(C)C(=O)O [Example 10]
pIC50: 5.30 to 6.10
//
compound: CC1(C)[C@@H](C(=O)N[C@@H](Cc2ccc(NC(=O)C3Cc4ccccc4CN3)cc2)C(=O)O)CC[C@@]1(C)C(=O)O (stereo partly drawn) [Example 146]
pIC50: 5.30 to 6.10
//
compound: Cc1cccc(Cl)c1C(=O)Nc1ccc(C[C@H](NC(=O)[C@H]2CC[C@@](C)(C(=O)O)C2(C)C)C(=O)O)cc1 [Example 106]
pIC50: ≥ 6.10
//
compound: CC1(C)[C@@H](C(=O)N[C@@H](Cc2ccc(NC(=O)c3ccc(Cl)cc3)cc2)C(=O)O)CC[C@@]1(C)C(=O)O [Example 128]
pIC50: 5.30 to 6.10

---

pIC50 values by entry
target: α4β1 integrin (Jurkat T-cell adhesion to IL-1 stimulated endothelial cell monolayers) (Homo sapiens, UniProt P05556+P13612); construct: a T-cell line, Jurkat, known to express the α4β1 integrin; test: Jurkat-Endothelial Cell Adhesion Assay (Jurkat EC); settings: Jurkat cells on IL-1 stimulated HUVEC monolayers
pIC50: −log10 of the molar value.

compound: C[C@H](NC(=O)[C@]1(C)CC[C@H](C(=O)N[C@@H](Cc2ccc(OCc3c(Cl)cccc3Cl)cc2)C(=O)O)C1(C)C)C(=O)O (relative stereo)
pIC50: 5.30 to 6.10
//
compound: CC1(C)[C@@H](C(=O)N[C@@H](Cc2ccc(NC(=O)c3ccccn3)cc2)C(=O)O)CC[C@@]1(C)C(=O)O
pIC50: 5.30 to 6.10
//
compound: CC1(C)[C@@H](C(=O)N[C@@H](Cc2ccc(OCc3c(Cl)cccc3Cl)cc2)C(=O)O)CC[C@@]1(C)C(=O)NCC(N)=O
pIC50: 5.30 to 6.10
//
compound: CC1(C)[C@@H](C(=O)N[C@@H](Cc2cn(Cc3ccc(Cl)cc3)cn2)C(=O)O)CC[C@@]1(C)C(=O)O
pIC50: 5.30 to 6.10
//
compound: CC1(C)[C@H](C(=O)N[C@@H](Cc2ccc(OCc3c(Cl)cccc3Cl)cc2)C(=O)O)CC[C@]1(C)C(=O)O
pIC50: 5.30 to 6.10
//
compound: CC1(C)[C@@H](C(=O)N[C@@H](Cc2ccc(NC(=O)c3c(Cl)cccc3Cl)cc2)C(=O)O)CC[C@@]1(C)C(=O)NOCc1ccccc1
pIC50: ≥ 6.10
